# Test system: Calu-3
# test_name: cell viability relative to DMSO; higher = less toxic
# experimental_parameters: 72 h; 100 nM
measured_quantity: cell viability (%)
Number in %, nothing else.

Fill in the blank: the reported cell viability of COc1cc2c(cc1OC)-c1cc3nc4ccccc4nc3n1C(C)(C)C2 is ____.
99.8

Same read-out for CC[C@H]1CN2CCc3cc(OC)c(OC)cc3[C@@H]2C[C@@H]1C[C@H]1NCCc2cc(OC)c(OC)cc21 ?
99.7

Try this compound too: CCN1CCN(C(=O)Cc2ccc(Nc3ncc(F)c(Nc4ccc(C(=O)Nc5ccccc5Cl)cc4)n3)cc2)CC1
109

Next entry: Nc1nccc(/C=C/c2ccccc2)n1
99.4

Cool, now CC(C)CCN1c2nc(Nc3cc(F)c(O)c(F)c3)ncc2N(C)C(=O)[C@@H]1C
90.2

Item: COCc1nc2c([nH]1)c(=O)n(C)c(=O)n2CC(C)C
98.1

Next compound: CN1C(=O)COc2c(C(=O)NC3CN4CCC3CC4)cc(Cl)cc21 (centres undefined)
103

Then CN1CC2c3ccccc3Oc3ccc(Cl)cc3C2C1 (centres undefined) ?
90.8

Quick one: COc1cc2c(NC3CCN(C)CC3)nc(N3CCCN(C)CC3)nc2cc1OCCOCCN(C)C
99

Hello, the source for this data is the supplement of paper PMC13380429, in case you need it.
